meta.source: patent US10077261B2

Target: hFASN enzyme (full length) (Homo sapiens, UniProt P49327)
Construct: 10 μL hFASN enzyme (full length, 300 ng, purified in house); made in house
Sequence (P49327 whole entry): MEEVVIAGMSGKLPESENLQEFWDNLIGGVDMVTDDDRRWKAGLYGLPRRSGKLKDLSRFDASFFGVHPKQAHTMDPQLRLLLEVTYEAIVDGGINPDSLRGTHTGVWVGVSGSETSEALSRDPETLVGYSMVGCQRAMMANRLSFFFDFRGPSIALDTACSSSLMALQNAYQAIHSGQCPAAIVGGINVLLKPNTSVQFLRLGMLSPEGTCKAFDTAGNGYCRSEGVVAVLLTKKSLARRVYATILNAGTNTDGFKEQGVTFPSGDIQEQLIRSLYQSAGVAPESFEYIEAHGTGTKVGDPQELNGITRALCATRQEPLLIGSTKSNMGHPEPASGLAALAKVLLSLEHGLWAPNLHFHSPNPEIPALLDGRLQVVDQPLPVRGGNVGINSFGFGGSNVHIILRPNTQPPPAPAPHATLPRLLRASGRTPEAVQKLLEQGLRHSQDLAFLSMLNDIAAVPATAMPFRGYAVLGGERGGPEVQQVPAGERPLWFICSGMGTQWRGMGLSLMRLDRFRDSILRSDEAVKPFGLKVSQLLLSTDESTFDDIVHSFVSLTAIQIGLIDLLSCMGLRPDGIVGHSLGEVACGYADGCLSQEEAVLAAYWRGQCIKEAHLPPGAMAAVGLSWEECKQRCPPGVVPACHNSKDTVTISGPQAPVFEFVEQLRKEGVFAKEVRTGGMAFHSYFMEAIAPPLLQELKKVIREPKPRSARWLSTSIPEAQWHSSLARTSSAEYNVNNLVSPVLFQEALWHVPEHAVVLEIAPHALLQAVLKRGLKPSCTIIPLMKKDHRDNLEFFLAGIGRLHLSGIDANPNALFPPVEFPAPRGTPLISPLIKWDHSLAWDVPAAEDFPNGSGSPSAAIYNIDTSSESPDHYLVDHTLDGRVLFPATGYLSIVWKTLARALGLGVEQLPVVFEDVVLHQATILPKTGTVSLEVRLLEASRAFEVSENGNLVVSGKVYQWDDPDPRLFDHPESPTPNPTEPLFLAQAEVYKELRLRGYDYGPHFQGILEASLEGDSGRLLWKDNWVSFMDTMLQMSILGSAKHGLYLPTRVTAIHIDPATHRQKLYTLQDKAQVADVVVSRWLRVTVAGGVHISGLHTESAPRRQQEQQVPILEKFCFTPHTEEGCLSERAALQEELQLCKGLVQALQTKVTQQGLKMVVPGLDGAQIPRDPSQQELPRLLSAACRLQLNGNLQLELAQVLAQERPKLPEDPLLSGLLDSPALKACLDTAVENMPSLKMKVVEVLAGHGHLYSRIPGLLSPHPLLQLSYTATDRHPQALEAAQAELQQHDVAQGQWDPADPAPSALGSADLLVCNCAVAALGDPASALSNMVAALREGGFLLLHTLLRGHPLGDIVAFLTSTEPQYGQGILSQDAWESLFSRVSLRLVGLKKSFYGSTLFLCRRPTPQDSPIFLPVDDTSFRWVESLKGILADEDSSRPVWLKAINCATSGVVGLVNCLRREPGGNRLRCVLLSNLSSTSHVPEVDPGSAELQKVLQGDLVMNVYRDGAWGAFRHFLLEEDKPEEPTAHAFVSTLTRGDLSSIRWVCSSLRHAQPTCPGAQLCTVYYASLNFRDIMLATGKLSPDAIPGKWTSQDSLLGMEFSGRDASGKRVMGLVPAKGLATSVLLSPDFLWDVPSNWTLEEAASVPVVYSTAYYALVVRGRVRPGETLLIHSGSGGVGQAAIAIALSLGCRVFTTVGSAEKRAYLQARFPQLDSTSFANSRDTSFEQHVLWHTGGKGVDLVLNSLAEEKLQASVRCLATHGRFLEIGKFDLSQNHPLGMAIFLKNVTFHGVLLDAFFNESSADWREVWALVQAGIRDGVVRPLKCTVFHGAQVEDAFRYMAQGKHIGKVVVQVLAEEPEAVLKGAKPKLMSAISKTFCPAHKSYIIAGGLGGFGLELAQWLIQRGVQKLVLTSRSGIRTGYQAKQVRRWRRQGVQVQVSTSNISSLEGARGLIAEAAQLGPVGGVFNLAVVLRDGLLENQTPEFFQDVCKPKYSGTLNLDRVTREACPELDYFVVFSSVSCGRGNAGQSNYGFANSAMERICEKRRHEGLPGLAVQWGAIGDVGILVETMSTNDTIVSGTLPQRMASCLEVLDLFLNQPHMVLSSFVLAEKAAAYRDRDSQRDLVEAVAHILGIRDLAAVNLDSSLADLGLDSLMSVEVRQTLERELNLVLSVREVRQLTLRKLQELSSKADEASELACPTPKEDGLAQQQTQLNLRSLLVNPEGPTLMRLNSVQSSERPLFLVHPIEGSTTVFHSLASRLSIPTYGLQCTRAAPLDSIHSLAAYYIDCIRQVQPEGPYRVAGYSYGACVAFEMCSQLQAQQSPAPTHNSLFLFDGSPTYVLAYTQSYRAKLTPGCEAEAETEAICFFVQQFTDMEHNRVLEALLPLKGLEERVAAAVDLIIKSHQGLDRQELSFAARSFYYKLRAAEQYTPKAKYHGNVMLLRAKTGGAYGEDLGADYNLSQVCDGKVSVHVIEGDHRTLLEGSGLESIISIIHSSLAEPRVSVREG
Assay: Fatty Acid Synthase (FASN) inhibition scintillation proximity assay
Type: biochemical
Details: read-out: Human FASN pIC50 (converted)
readout_name: IC50 (µM)

Use these answered entries as a reference point.
Give reported IC50 value for O=C(C1CC1)N1CC(CN2C(=O)C3(CCN(CCO)CC3)N=C2c2ccc(-c3ccc4[nH]ncc4c3)cc2)C1 3.39

Give reported IC50 value for O=C(C1CC1)N1CC(CN2C(=O)C3(CC3)N=C2c2ccc(-c3nc4cc(F)ccc4s3)cc2F)C1 0.191

Give reported IC50 value for Cc1cc(-c2ccc(-c3cnn(C)c3)cc2)ccc1C1=NC2(CC2)C(=O)N1C[C@@H]1CCN(C(=O)C2CC2)C1 0.0417

1 = Cc1cc2cc(-c3ccc(C4=NC5(CC5)C(=O)N4CC4CN(C(=O)C5CC5)C4)cc3F)ccc2s1
2 = O=C(C1CC1)N1CCC(CN2C(=O)C3(CC3)N=C2c2ccc(-c3ccc4cnccc4c3)cc2)CC1
Hey, between 1 and 2 which has a smaller measured IC50? Give the label of your selection. 2
(2: 0.158 µM, 1: 1.82 µM)

a = Cn1cc(-c2ccc(-c3ccc(C4=NC5(CC5)C(=O)N4CC4CN(C(=O)C5CC5)C4)c(F)c3)cc2)cn1
b = N#Cc1ccc2cc(-c3ccc(C4=NC5(CC5)C(=O)N4CC4CN(C(=O)C5(O)CC5)C4)c(F)c3)ccc2c1
Which numeric IC50 is bigger, that of a or that of b ? Give the label of your selection. a
(a: 0.038 µM, b: 0.0234 µM)
